# runDescription: in vivo
# Parameters: species or system SCID mice
# conditionLabel: mouse, in vivo, iv, Minimal Leukemia Burden; read-out: Linear Binding Constant (R), Heart
measurementType: Kp
Would you mind answering with just the numeric figure?

Lookup result for O=c1c(-c2ccc(O)cc2)coc2cc(O)cc(O)c12 [GEN, 5,7,4'-trihydroxyisoflavone] ; measured Kp: 0.335

----------
# runDescription: in vivo
# Parameters: species or system SCID mice
# conditionLabel: mouse, in vivo, iv, Minimal Leukemia Burden; residual drug not accounted for by tissues studied; read-out: Linear Binding Constant (R), Rest of Body
measurementType: Kp
Would you mind answering with just the numeric figure?

Lookup result for O=c1c(-c2ccc(O)cc2)coc2cc(O)cc(O)c12 [GEN, 5,7,4'-trihydroxyisoflavone] ; measured Kp: 1.11

----------
# runDescription: in vivo
# Parameters: species or system SCID mice
# conditionLabel: mouse, in vivo, iv, Minimal Leukemia Burden; read-out: Linear Binding Constant (R), Brain
measurementType: Kp
Would you mind answering with just the numeric figure?

Lookup result for O=c1c(-c2ccc(O)cc2)coc2cc(O)cc(O)c12 [GEN, 5,7,4'-trihydroxyisoflavone] ; measured Kp: 0.027

----------
# runDescription: in vivo
# Parameters: species or system SCID mice
# conditionLabel: mouse, in vivo, iv, Minimal Leukemia Burden; read-out: Linear Binding Constant (R), Kidney
measurementType: Kp
Would you mind answering with just the numeric figure?

Lookup result for O=c1c(-c2ccc(O)cc2)coc2cc(O)cc(O)c12 [GEN, 5,7,4'-trihydroxyisoflavone] ; measured Kp: 0.253

All figures here come from patent US5587459A.
